biological target: Ubiquitin-conjugating enzyme E2 N (Homo sapiens, UniProt P61088); type: functional
Sequence (P61088 whole entry): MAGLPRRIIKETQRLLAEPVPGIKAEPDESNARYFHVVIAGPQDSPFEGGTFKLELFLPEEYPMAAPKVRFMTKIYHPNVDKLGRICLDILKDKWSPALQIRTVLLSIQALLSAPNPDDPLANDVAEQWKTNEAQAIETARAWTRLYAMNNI
Active and inactive are the calls of the source.
Your answer must be one of the following: Yes = active, No = inactive

Reference set, count: 2
>  <COMPOUND>
COc1ccc(-c2sc3ccccc3c2-c2ccc(OCCN3CCOCC3)cc2)cc1

>  <LABEL CLASS>
No

$$$$
>  <COMPOUND>
CCc1ccc2nc(N(CCCN(C)C)C(=O)c3ccc(S(=O)(=O)N4CCc5ccccc5C4)cc3)sc2c1

>  <LABEL CLASS>
Yes

$$$$

Ask | What was the test verdict on NC1=NC[C@@H](CC2CCCCC2)N1CCc1cc(C(F)(F)F)cc(C(F)(F)F)c1 ?
Reply | Yes

Ask | Tell me the recorded outcome of this test for O=C(CCCCn1c(=O)c2ccccc2n(Cc2ccccc2)c1=O)NC1CCN(Cc2ccccc2)CC1 .
Reply | Yes

Ask | Look up the recorded call for CC[n+]1c(/C=C/N(C)c2ccccc2)n(-c2ccccc2)c2ccc(-c3nc4ccccc4s3)cc21 in this test.
Reply | Yes

Ask | GET /call?item= CC1(C)Cc2c(sc(NC(=O)COc3ccc(Cl)cc3Cl)c2C(N)=O)C(C)(C)N1 returns the recorded outcome of this test.
Reply | Yes

Ask | Any idea what this test logged for CCN=C(S)N=Nc1c(O)[nH]c2ccc(C(C)C)cc12 ?
Reply | Yes

Ask | Answer briefly: the call reported for O=C1c2cccc3cccc(c23)C(=O)N1CCN1CCN(CC(O)COc2ccc3ccccc3c2)CC1 (stereo unspecified) in this assay.
Reply | Yes

Ask | Entry O=C(CCCCn1c(=O)c2ccccc2n(Cc2ccccc2F)c1=O)NC1CCN(Cc2ccccc2)CC1 : call = ?
Reply | Yes

Ask | Test call, this compound: COCCN=C(S)N=Nc1c(O)[nH]c2c(C)cc(C)cc12
Reply | Yes

Ask | Test call, this compound: C#CCOCCOCCOCCNc1nc(N2CCN(C(=O)[C@H](CCCCN)n3cc(CN)nn3)CC2)nc(N2CCN(C(=O)[C@H](CCC(=O)O)n3cc([C@@H](N)CCCCN)nn3)CC2)n1
Reply | Yes

* * *

target: UniProt:P08684
Sequence (P08684 whole entry): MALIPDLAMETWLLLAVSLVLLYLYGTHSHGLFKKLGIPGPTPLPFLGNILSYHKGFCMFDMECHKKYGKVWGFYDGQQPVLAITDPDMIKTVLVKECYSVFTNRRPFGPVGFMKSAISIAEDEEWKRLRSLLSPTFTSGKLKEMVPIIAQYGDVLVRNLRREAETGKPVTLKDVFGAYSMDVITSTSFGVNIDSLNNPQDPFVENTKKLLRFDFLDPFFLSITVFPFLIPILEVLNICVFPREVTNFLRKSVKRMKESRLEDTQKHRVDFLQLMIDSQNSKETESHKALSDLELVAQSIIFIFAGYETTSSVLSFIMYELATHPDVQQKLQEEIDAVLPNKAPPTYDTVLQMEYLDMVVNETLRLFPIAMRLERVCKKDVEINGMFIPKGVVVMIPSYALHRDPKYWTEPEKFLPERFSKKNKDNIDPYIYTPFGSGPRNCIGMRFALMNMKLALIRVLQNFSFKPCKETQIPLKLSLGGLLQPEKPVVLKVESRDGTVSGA
ENDPOINT NAME: AC50

These recorded examples may help you get a feel for the data.
>  <COMPOUND>
Cc1ccc(CCN2CC(C(=O)NCCCN(C)Cc3ccccc3)CC2=O)cc1 (centres undefined)

>  <AC50>
31.6 µM (inconclusive)

$$$$
>  <COMPOUND>
O=S(=O)(c1ccccc1)c1cnn2c(C(F)(F)F)cc(-c3ccc(F)cc3)nc12

>  <AC50>
3.16 µM (inconclusive)

$$$$
>  <COMPOUND>
Cn1cc(-c2nc3cnc(N4CCNCC4)nc3n(C3CC3)c2=O)c2ccccc21

>  <AC50>
7.94 µM (inconclusive)

$$$$

Item CN(C)c1ncc2nc(-c3cccs3)c(=O)n(C)c2n1 ; assay system UniProt:P08684; AC50 reported as 31.6 µM (inconclusive)

So the reported AC50 for Cc1cc(C)cc(NC(=O)CC(=N)NO)c1 , on UniProt:P08684, turned out to be 28.2 µM (inconclusive)

* * *

Biological target: Nuclear receptor subfamily 0 group B member 1 (Homo sapiens);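 further: HEK293T cells transfected with SF-1 and DAX-1 plus StAR promoter luciferase reporter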
Sequence (P51843 whole entry): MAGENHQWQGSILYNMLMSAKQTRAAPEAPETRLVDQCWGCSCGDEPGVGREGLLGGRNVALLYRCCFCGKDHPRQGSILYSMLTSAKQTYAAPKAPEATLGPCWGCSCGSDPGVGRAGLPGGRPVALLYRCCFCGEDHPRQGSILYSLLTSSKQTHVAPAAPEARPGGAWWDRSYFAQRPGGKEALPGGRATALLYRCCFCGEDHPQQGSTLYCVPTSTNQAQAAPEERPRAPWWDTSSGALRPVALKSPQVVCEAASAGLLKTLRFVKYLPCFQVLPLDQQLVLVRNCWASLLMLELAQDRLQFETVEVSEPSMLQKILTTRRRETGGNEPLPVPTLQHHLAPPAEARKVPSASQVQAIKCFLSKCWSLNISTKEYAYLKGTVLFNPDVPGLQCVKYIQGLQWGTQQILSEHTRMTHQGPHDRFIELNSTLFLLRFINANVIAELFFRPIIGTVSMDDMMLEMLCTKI
Assay type: functional, cell-based
Calls of active or inactive are those of the source.
Give your call using only these classes: active, inactive

Record excerpt, results attached:
>  <CPD SMILES>
O=C(/C=C\Nc1ccc2c(c1)OCO2)c1cccs1

>  <TARGET UNDER TEST>
Nuclear receptor subfamily 0 group B member 1 (Homo sapiens);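 further: HEK293T cells transfected with SF-1 and DAX-1 plus StAR promoter luciferase reporter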

>  <LABEL CLASS>
inactive

$$$$
>  <CPD SMILES>
c1ccc2sc(NN=C3CCCCCC3)nc2c1

>  <TARGET UNDER TEST>
Nuclear receptor subfamily 0 group B member 1 (Homo sapiens);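 further: HEK293T cells transfected with SF-1 and DAX-1 plus StAR promoter luciferase reporter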

>  <LABEL CLASS>
active

$$$$

Ask | # lookup: test call for Cc1cc(C(=O)CSc2nnc(N)s2)c(C)n1Cc1cccs1
Reply | active

Ask | What did the test return for O=C(CCS(=O)(=O)c1ccccc1)N(CCCN1CCOCC1)c1nc2ccc(F)cc2s1 ?
Reply | inactive
